test: qHTS assay for identifying genotoxic compounds that show differential cytotoxicity against isogenic chicken DT40 cell lines with known DNA damage response pathways - wild type cell line (AID 743012); details: DT40 wild type chicken cells viability, CellTiter-Glo, 40 h; series mostly up to 68.4 µM; also: nearly all actives have a fitted effect of over 60% in size
Inconclusive results are not listed. Activity calls are given as the source filed them. Calls follow the shape of the dose curve; as a rule, active = well fitted cell-killing curve with a large enough effect in the repeat runs; inconclusive = weak or mixed curves, or effect the other way; inactive = no such curve, though single readings can be large or run the other way.
Labels: active, inactive

>>> class_label("C/C=C(C)/C=C/C=C(C)C")
"active"
>>> class_label("O=C(c1ccc(O)cc1)c1ccc(O)cc1O")
"inactive"
>>> class_label("Cc1cc(=O)[nH]c(C(C)C)n1")
"inactive"
>>> class_label("C=C(C)C(=O)OCCCCCC")
"inactive"
>>> class_label("C=C(C)C(=O)OCCC[Si](OC)(OC)OC")
"inactive"
>>> class_label("CC(C)(N=C=O)c1cccc(C(C)(C)N=C=O)c1")
"inactive"
>>> class_label("C=C(C)C(=O)OCCCCCCCCCCCC")
"inactive"
>>> class_label("O=C(O)c1cc(-c2ccccc2)nc2ccccc12")
"inactive"
>>> class_label("CCCCCCCCCCC=CC1CC(=O)OC1=O (centres undefined)")
"inactive"
>>> class_label("CCC(=O)O")
"inactive"
>>> class_label("CCCCCCCCCC(=O)O")
"inactive"
>>> class_label("COCC(=O)O")
"inactive"
>>> class_label("O=C1O[C@H](CO)[C@@H](O)[C@H](O)[C@H]1O")
"inactive"
>>> class_label("Nc1nc2ncc(CNc3ccc(C(=O)N[C@@H](CCC(=O)O)C(=O)O)cc3)nc2c(=O)[nH]1")
"inactive"

====

experiment: qHTS assay to identify small molecule antagonists of the androgen receptor (AR) signaling pathway - cell viability counter screen (AID 743033; also: nearly all actives have a fitted effect of over 45% in size); settings: AR-bla HEK293 viability, CellTiter-Glo luminescence, 16 h; series mostly up to 58.5 µM
Records with an inconclusive call do not appear. Active and inactive are the calls of the source. The call rests on the fitted dose curve; in most records, active means well fitted cell-killing curve with a large enough effect in the repeat runs; inconclusive means weak or mixed curves; inactive means no such curve, though single readings can be large or run the other way.
Readout label: outcome

>>> result("CC(=O)[C@@]1(O)CC[C@H]2[C@@H]3CCC4=CC(=O)CC[C@]4(C)[C@H]3CC[C@@]21C")
"inactive"
>>> result("Cc1cc(Cc2ccc(N)c(C)c2)ccc1N")
"inactive"
>>> result("CCCCCCC(C)(C)S")
"inactive"
>>> result("CCCCCCCCCCC=CC1CC(=O)OC1=O (stereo not drawn)")
"inactive"
>>> result("CC1CC(OC(=O)c2ccccc2O)CC(C)(C)C1 (stereo not drawn)")
"inactive"
>>> result("OCC1CCCO1 (stereo not drawn)")
"inactive"
>>> result("CCCCC(CC)COC(C)=O (stereo not drawn)")
"inactive"
>>> result("COCC(C)O (stereo not drawn)")
"inactive"
>>> result("O=C1N=C(O)CN1/N=C/c1ccc(-c2ccc([N+](=O)[O-])cc2)o1")
"inactive"
>>> result("CCCCC(CC)COC(=O)CCCCCCCC(=O)OCC(CC)CCCC (stereo not drawn)")
"inactive"
>>> result("O=c1c(-c2ccc(O)cc2)coc2cc(O)ccc12")
"inactive"
>>> result("O=C1CCCCC1")
"inactive"
>>> result("CCOC(=O)[C@H](CCc1ccccc1)N[C@@H](C)C(=O)N1Cc2ccccc2C[C@H]1C(=O)O")
"inactive"

====

assay: qHTS assay to test for compound auto fluorescence at 460 nm (blue) in HEK293 cell free culture (AID 720681); settings: cell-free medium, autofluorescence 405/460 nm (blue); series mostly up to 91.3 µM
The source made the active and inactive calls. Calls follow the shape of the dose curve; as a rule, active = well fitted curve in the direction sought with a large enough effect in the repeat runs; inconclusive = weak or mixed curves; inactive = flat fitted curve, though single readings scatter.
Readout label: outcome

>>> result("COCC(C)O (stereo unspecified)")
"inactive"
>>> result("O=C(O)c1ccc([N+](=O)[O-])cc1")
"inactive"
>>> result("CCCCC(CC)COC(=O)/C=C\\C(=O)OCC(CC)CCCC (stereo unspecified)")
"inactive"
>>> result("Cc1ccc(N)c(S(=O)(=O)O)c1")
"inactive"
>>> result("CC1Cc2ccccc2N1NC(=O)c1ccc(Cl)c(S(N)(=O)=O)c1 (stereo unspecified)")
"inactive"
>>> result("CN(CCOc1ccc(CC2SC(=O)NC2=O)cc1)c1ccccn1 (stereo unspecified)")
"inactive"
>>> result("C/C=C(C)/C=C/C=C(C)C")
"inactive"
>>> result("CC(=O)CCc1ccccc1")
"inactive"
>>> result("CCCCCCCCC")
"inactive"
>>> result("CCCCC(CC)COC(=O)CCCCCCCC(=O)OCC(CC)CCCC (stereo unspecified)")
"inactive"
>>> result("c1ccc2[nH]cnc2c1")
"inactive"
>>> result("OC1CCCC1")
"inactive"
>>> result("CC(C)n1c(/C=C/[C@@H](O)C[C@@H](O)CC(=O)O)c(-c2ccc(F)cc2)c2ccccc21")
"inactive"
>>> result("O=C(c1ccc(O)cc1)c1ccc(O)cc1O")
"inactive"
>>> result("Clc1cc(Cl)c(Cl)cc1Cl")
"inactive"
>>> result("CC#C[C@]1(O)CC[C@H]2[C@@H]3CCC4=CC(=O)CCC4=C3[C@@H](c3ccc(N(C)C)cc3)C[C@@]21C")
"inactive"
>>> result("C=C1CC[C@H](O)CC1=C/C=C1\\CCC[C@]2(C)[C@@H]([C@H](C)/C=C/[C@H](C)C(C)C)CC[C@@H]12")
"inactive"
>>> result("O=Nc1ccc(O)cc1")
"inactive"
>>> result("CCCCCCCCCCC=CC1CC(=O)OC1=O (stereo unspecified)")
"inactive"
>>> result("S=c1nc[nH]c2nc[nH]c12")
"inactive"
>>> result("Nc1c(S(=O)(=O)O)cc(Br)c2c1C(=O)c1ccccc1C2=O")
"inactive"
>>> result("NCCNCCNCCNCCN")
"inactive"
>>> result("O=S(=O)(Oc1ccc(Cl)cc1Cl)c1ccccc1")
"inactive"
>>> result("Cc1ccc(C(=O)O)o1")
"inactive"
>>> result("CCCCC/C=C\\C/C=C\\CCCCCCCC(=O)OC")
"inactive"
>>> result("OCC1CCCO1 (stereo unspecified)")
"inactive"
>>> result("NC(=O)NNc1ccccc1")
"inactive"
>>> result("O=[N+]([O-])C(CO)(CO)CO")
"inactive"
>>> result("O=C1CCCCC1")
"inactive"
>>> result("O=C1N=C(O)CN1/N=C/c1ccc(-c2ccc([N+](=O)[O-])cc2)o1")
"inactive"
>>> result("CC[Si](OC(C)=O)(OC(C)=O)OC(C)=O")
"inactive"
>>> result("CC(C)NCC(O)COc1cccc2ccccc12 (stereo unspecified)")
"inactive"
>>> result("C=C(C)C(=O)OCCCCCC")
"inactive"
>>> result("OCC#CCO")
"inactive"
>>> result("C=C(C)C(=O)OCC(CC)(COC(=O)C(=C)C)COC(=O)C(=C)C")
"inactive"
>>> result("Oc1ccc(OCc2ccccc2)cc1")
"inactive"
>>> result("COC(=O)c1ccc(C(=O)OC)cc1")
"inactive"
>>> result("O=S(=O)(O)CCS")
"inactive"
>>> result("CCOC(=O)/C=C\\C(=O)OCC")
"inactive"
>>> result("C=C1C2CCC(C2)C1(C)C (stereo unspecified)")
"inactive"
>>> result("C[C@@H]1O[C@@H](OC[C@H]2O[C@@H](Oc3c(-c4ccc(O)c(O)c4)oc4cc(O)cc(O)c4c3=O)[C@H](O)[C@@H](O)[C@@H]2O)[C@H](O)[C@H](O)[C@H]1O")
"inactive"
>>> result("CCCCCCCCCCCCN")
"inactive"
>>> result("Oc1c(Cl)cc(Cl)c(Cl)c1Cl")
"inactive"
>>> result("CCCCOCCO")
"inactive"
>>> result("CC(C)(C)C(=O)C1C(=O)c2ccccc2C1=O")
"inactive"
>>> result("CCCCCCCCCC(=O)O")
"inactive"
>>> result("CCc1ccc(O)cc1")
"inactive"
>>> result("CNC[C@H](O)[C@@H](O)[C@H](O)[C@H](O)CO")
"inactive"
>>> result("O=C(c1cc(O)c(O)c(O)c1)c1ccc(O)c(O)c1O")
"inactive"
>>> result("CCCCNC(N)=O")
"inactive"
>>> result("C[C@@H](O)[C@H]1C(=O)N2C(C(=O)O)=C(S[C@@H]3CN[C@H](C(=O)N(C)C)C3)[C@H](C)[C@H]12")
"inactive"

====

biological target: Vitamin D3 receptor (Homo sapiens) (UniProt P11473); test: qHTS assay to identify small molecule antagonists of the vitamin D receptor (VDR) signaling pathway (AID 743223); settings: VDR-UAS-bla HEK293T, beta-lactamase FRET ratio, 16 h; series mostly up to 61 µM
Sequence (P11473 whole entry, looked up): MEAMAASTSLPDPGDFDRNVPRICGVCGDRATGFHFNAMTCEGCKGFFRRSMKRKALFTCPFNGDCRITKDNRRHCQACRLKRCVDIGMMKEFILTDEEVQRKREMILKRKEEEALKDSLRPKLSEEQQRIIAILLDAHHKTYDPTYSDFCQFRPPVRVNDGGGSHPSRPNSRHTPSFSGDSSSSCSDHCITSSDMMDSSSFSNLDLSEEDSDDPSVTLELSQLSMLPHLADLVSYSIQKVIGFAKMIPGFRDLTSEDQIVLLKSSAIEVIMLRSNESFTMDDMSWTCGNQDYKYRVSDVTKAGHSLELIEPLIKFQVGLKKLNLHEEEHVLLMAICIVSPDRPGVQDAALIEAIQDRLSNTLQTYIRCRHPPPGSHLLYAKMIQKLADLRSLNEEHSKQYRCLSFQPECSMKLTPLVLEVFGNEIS
Results filed as inconclusive are left out. Activity calls are given as the source filed them. Calls follow the shape of the dose curve; as a rule, active = well fitted inhibition curve with a large enough effect in the signal ratio in the repeat runs (not every such curve was filed as active); inconclusive = weak or mixed curves, or effect the other way; inactive = no such curve, though single readings can be large or run the other way; the % refers to the signal ratio.
Labels: active, inactive

>>> class_label("CCCCCCCCCCC=CC1CC(=O)OC1=O (stereo not given)")
"inactive"
>>> class_label("CCc1ccc(O)cc1")
"inactive"
>>> class_label("C=C(C)C(=O)OCCCCCCCCCCCC")
"inactive"
>>> class_label("CCCCOCCO")
"inactive"
>>> class_label("O=[N+]([O-])C(CO)(CO)CO")
"inactive"
>>> class_label("O=C1O[C@H](CO)[C@@H](O)[C@H](O)[C@H]1O")
"inactive"
>>> class_label("Clc1ccc(Cl)c(Cl)c1Cl")
"inactive"
>>> class_label("CCCCCCCCCC(=O)O")
"inactive"
>>> class_label("CCCCC(CC)COC(C)=O (stereo not given)")
"inactive"
>>> class_label("Oc1ccc2ccccc2c1")
"inactive"
>>> class_label("Cc1ccc(C(=O)O)o1")
"inactive"
>>> class_label("CN(C)c1ccc(C(=N)c2ccc(N(C)C)cc2)cc1")
"active"
>>> class_label("C/C=C(C)/C=C/C=C(C)C")
"inactive"
>>> class_label("O=C(Oc1ccccc1)c1ccc(O)cc1")
"inactive"
>>> class_label("COC(=O)c1ccccc1O")
"inactive"
>>> class_label("CC1(C)CC(N=C=O)CC(C)(CN=C=O)C1 (stereo not given)")
"inactive"
>>> class_label("Cc1cc(NS(=O)(=O)c2ccc(N)cc2)no1")
"inactive"
>>> class_label("COCC(=O)O")
"inactive"
>>> class_label("CCCCC(CC)C(=O)OCCOCCOCCOC(=O)C(CC)CCCC (stereo not given)")
"inactive"
>>> class_label("C[C@@H]1O[C@@H](OC[C@H]2O[C@@H](Oc3c(-c4ccc(O)c(O)c4)oc4cc(O)cc(O)c4c3=O)[C@H](O)[C@@H](O)[C@@H]2O)[C@H](O)[C@H](O)[C@H]1O")
"inactive"
>>> class_label("NC(=O)NNc1ccccc1")
"inactive"
>>> class_label("CC(C)(CO)COC(=O)C(C)(C)CO")
"inactive"
>>> class_label("Oc1ccc(OCc2ccccc2)cc1")
"inactive"
>>> class_label("CN(C)c1cccc(O)c1")
"inactive"
>>> class_label("c1ccc2[nH]cnc2c1")
"inactive"
>>> class_label("COC(=O)c1ccc(C(=O)OC)cc1")
"inactive"
>>> class_label("CC1=C(/C=C/C(C)=C/C=C/C(C)=C/CO)C(C)(C)CCC1")
"inactive"
>>> class_label("Cn1c([N+](=O)[O-])cnc1COC(N)=O")
"inactive"
>>> class_label("CCCCCC/C=C/CCCCCCCC(=O)O")
"inactive"
>>> class_label("C=CC(=O)OCCCCCCCC(C)C")
"inactive"

Each recorded value in this set is attributed to PubChem BioAssay (Tox21).
